Hello, the source for this data is ChEMBL document CHEMBL1134691, in case you need it.

- Test system: Nakaseomyces glabratus
- Assay explanation: Inhibition of Candida glabrata 20/I growth for 24 hours in vitro.
- Assay type: functional
- Condition: Nakaseomyces glabratus, 24 h; read-out: MIC
Each record here notes measured MIC.
Measured attribute: MIC

> print(dat)
                                    compound            study.target  test.value
 1  CC(C)(C)C(=O)OCC1C=C(c2cccc(Cl)c2)C(=O)O1 (configuration not stated)  Nakaseomyces glabratus   < 0.98 µM
 2  COc1ccc(C2=CC(CO)OC2=O)cc1 (configuration not stated)  Nakaseomyces glabratus      125 µM
 3  O=C1OC(CO)C=C1c1ccc(Cl)c(Cl)c1 (configuration not stated)  Nakaseomyces glabratus     62.5 µM
 4  COc1ccc(C2=CC(COC(C)=O)OC2=O)cc1 (configuration not stated)  Nakaseomyces glabratus     31.2 µM
 5  CC(=O)OCC1C=C(c2cccc(Cl)c2)C(=O)O1 (configuration not stated)  Nakaseomyces glabratus   < 0.98 µM
 6  COc1ccc(C2=CC(COC(=O)C(C)(C)C)OC2=O)cc1 (configuration not stated)  Nakaseomyces glabratus     31.2 µM
 7  COc1ccc(C2=CC(COC(=O)c3ccc(Cl)cc3)OC2=O)cc1 (configuration not stated)  Nakaseomyces glabratus     62.5 µM
 8  O=C1OC(COC(=O)c2ccc(Cl)cc2)C=C1c1ccc(Cl)c(Cl)c1 (configuration not stated)  Nakaseomyces glabratus     0.98 µM
 9  O=C1OC(COC(=O)c2ccc(Cl)cc2)C=C1c1ccc(Br)cc1 (configuration not stated)  Nakaseomyces glabratus     1.95 µM
10        OC(Cn1cncn1)(Cn1cncn1)c1ccc(F)cc1F  Nakaseomyces glabratus        4 µM
11  CC(C)(C)C(=O)OCC1C=C(c2ccc(Br)cc2)C(=O)O1 (configuration not stated)  Nakaseomyces glabratus     1.95 µM
12  O=C1OC(CO)C=C1c1cccc(Cl)c1 (configuration not stated)  Nakaseomyces glabratus     62.5 µM

###

Each record here notes measured MIC.
- System: Pichia kudriavzevii
- Assay explanation: Inhibition of Candida krusei E28 growth for 24 hours in vitro.
- Assay type: functional
- Condition: Pichia kudriavzevii, 24 h; read-out: MIC
Measured attribute: MIC (µM)

> print(dat)
                                   molecule  measured.attribute  display.unit  test.value
1  O=C1OC(CO)C=C1c1cccc(Cl)c1 (centres undefined)                 MIC            µM        1000
2  CC(=O)OCC1C=C(c2cccc(Cl)c2)C(=O)O1 (centres undefined)                 MIC            µM        7.81
3  CC(=O)OCC1C=C(c2ccc(Br)cc2)C(=O)O1 (centres undefined)                 MIC            µM        3.91
4  CC(C)(C)C(=O)OCC1C=C(c2cccc(Cl)c2)C(=O)O1 (centres undefined)                 MIC            µM        7.81

###

- Tested on: Candida albicans
- Assay explanation: Inhibition of Candida albicans ATCC 44859 growth for 24 hours in vitro.
- Format: functional
- Condition: Candida albicans, ATCC 44859, 24 h; read-out: MIC
// NB: equality with 1 µM counts as not met; only MIC strictly below is met

> print(dat)
                                   compound      study.target  group.label
1  CC(=O)OCC1C=C(c2ccc(Br)cc2)C(=O)O1 (stereo unspecified)  Candida albicans          met
2  O=C1OC(COC(=O)c2ccc(Cl)cc2)C=C1c1ccc(Cl)c(Cl)c1 (stereo unspecified)  Candida albicans          met
3  O=C1OC(COC(=O)c2ccc(Cl)cc2)C=C1c1ccc(Br)cc1 (stereo unspecified)  Candida albicans      not met
4  CC(C)(C)C(=O)OCC1C=C(c2ccc(Br)cc2)C(=O)O1 (stereo unspecified)  Candida albicans          met
5  O=C1OC(CO)C=C1c1cccc(Cl)c1 (stereo unspecified)  Candida albicans      not met
6  O=C1OC(CO)C=C1c1ccc(Cl)c(Cl)c1 (stereo unspecified)  Candida albicans      not met
7  OC(Cn1cncn1)(Cn1cncn1)c1ccc(F)cc1F [FLUCONAZOLE]  Candida albicans          met
8  CC(C)(C)C(=O)OCC1C=C(c2ccc(Cl)c(Cl)c2)C(=O)O1 (stereo in doubt; (-)2c)  Candida albicans      not met
9  COc1ccc(C2=CC(COC(=O)c3ccc(Cl)cc3)OC2=O)cc1 (stereo unspecified)  Candida albicans      not met

###

- Test system: Candida tropicalis
- Assay explanation: Inhibition of Candida tropicalis 156 growth for 48 hours in vitro.
- Format: functional
- Condition: Candida tropicalis, 48 h; read-out: MIC
Measured attribute: log10 of MIC (log10 of the value in µM)

> print(dat)
                                    molecule        study.target  test.value
 1  O=C1OC(COC(=O)c2ccc(Cl)cc2)C=C1c1ccc(Br)cc1 (stereo not given)  Candida tropicalis        1.19
 2  COc1ccc(C2=CC(COC(=O)C(C)(C)C)OC2=O)cc1 (stereo not given)  Candida tropicalis        1.80
 3  O=C1OC(CO)C=C1c1ccc(Br)cc1 (stereo not given)  Candida tropicalis        2.70
 4  COc1ccc(C2=CC(COC(C)=O)OC2=O)cc1 (stereo not given)  Candida tropicalis        1.80
 5  O=C1OC(COC(=O)c2ccc(Cl)cc2)C=C1c1cccc(Cl)c1 (stereo not given)  Candida tropicalis        1.49
 6  O=C1OC(COC(=O)c2ccc(Cl)cc2)C=C1c1ccc(Cl)c(Cl)c1 (stereo not given)  Candida tropicalis        0.59
 7  O=C1OC(CO)C=C1c1ccc(Cl)c(Cl)c1 (stereo not given)  Candida tropicalis        2.70
 8  CC(C)(C)C(=O)OCC1C=C(c2ccc(Br)cc2)C(=O)O1 (stereo not given)  Candida tropicalis        0.89
 9  CC(=O)OCC1C=C(c2cccc(Cl)c2)C(=O)O1 (stereo not given)  Candida tropicalis        1.19
10  CC(=O)OCC1C=C(c2ccc(Br)cc2)C(=O)O1 (stereo not given)  Candida tropicalis        1.19
11  COc1ccc(C2=CC(COC(=O)c3ccc(Cl)cc3)OC2=O)cc1 (stereo not given)  Candida tropicalis        2.10
12  CC(=O)OCC1C=C(c2ccc(Cl)c(Cl)c2)C(=O)O1 (stereo not given)  Candida tropicalis        0.89
13  CC(C)(C)C(=O)OCC1C=C(c2cccc(Cl)c2)C(=O)O1 (stereo not given)  Candida tropicalis        1.19

###

- Test system: Nakaseomyces glabratus
- Assay explanation: Inhibition of Candida glabrata 20/I growth for 24 hours in vitro.
- Format: functional
- Condition: Nakaseomyces glabratus, 24 h; read-out: MIC
Measured attribute: MIC (µM)

> print(dat)
                                   compound  display.unit  test.value
1  O=C1OC(COC(=O)c2ccc(Cl)cc2)C=C1c1cccc(Cl)c1 (centres undefined)            µM        1.95
2  CC(=O)OCC1C=C(c2ccc(Cl)c(Cl)c2)C(=O)O1 (centres undefined)            µM        0.98
3  CC(=O)OCC1C=C(c2ccc(Br)cc2)C(=O)O1 (centres undefined)            µM        0.98
4  O=C1OC(CO)C=C1c1ccc(Br)cc1 (centres undefined)            µM         125

###

- Test system: Clavispora lusitaniae
- Assay explanation: Inhibition of Candida lusitaniae 2446/I growth for 24 hours in vitro.
- Type: functional
- Condition: Clavispora lusitaniae, 24 h; read-out: MIC
Each record here notes measured MIC.
Measured attribute: MIC (µM)

> print(dat)
                                    molecule  measured.attribute  test.value
 1  CC(=O)OCC1C=C(c2ccc(Br)cc2)C(=O)O1 (configuration not stated)                 MIC        1.95
 2  O=C1OC(COC(=O)c2ccc(Cl)cc2)C=C1c1ccc(Br)cc1 (configuration not stated)                 MIC        3.91
 3  CC(=O)OCC1C=C(c2ccc(Cl)c(Cl)c2)C(=O)O1 (configuration not stated)                 MIC        1.95
 4  O=C1OC(CO)C=C1c1cccc(Cl)c1 (configuration not stated)                 MIC         250
 5  O=C1OC(CO)C=C1c1ccc(Cl)c(Cl)c1 (configuration not stated)                 MIC         125
 6  O=C1OC(COC(=O)c2ccc(Cl)cc2)C=C1c1cccc(Cl)c1 (configuration not stated)                 MIC        7.81
 7  O=C1OC(CO)C=C1c1ccc(Br)cc1 (configuration not stated)                 MIC         250
 8  CC(C)(C)C(=O)OCC1C=C(c2ccc(Cl)c(Cl)c2)C(=O)O1 (stereo in doubt; (-)2c)                 MIC        3.91
 9  COc1ccc(C2=CC(COC(C)=O)OC2=O)cc1 (configuration not stated)                 MIC        31.2
10  COc1ccc(C2=CC(COC(=O)c3ccc(Cl)cc3)OC2=O)cc1 (configuration not stated)                 MIC        62.5
11  COc1ccc(C2=CC(CO)OC2=O)cc1 (configuration not stated)                 MIC        31.2
12  CC(C)(C)C(=O)OCC1C=C(c2ccc(Br)cc2)C(=O)O1 (configuration not stated)                 MIC        3.91
13  OC(Cn1cncn1)(Cn1cncn1)c1ccc(F)cc1F [FLUCONAZOLE]                 MIC           1
14  COc1ccc(C2=CC(COC(=O)C(C)(C)C)OC2=O)cc1 (configuration not stated)                 MIC        31.2
15  CC(C)(C)C(=O)OCC1C=C(c2cccc(Cl)c2)C(=O)O1 (configuration not stated)                 MIC        3.91
16  CC(=O)OCC1C=C(c2cccc(Cl)c2)C(=O)O1 (configuration not stated)                 MIC        3.91
17  CC(=O)N1CCN(c2ccc(OCC3COC(Cn4ccnc4)(c4ccc(Cl)cc4Cl)O3)cc2)CC1 (configuration not stated) [KETOCONAZOLE]                 MIC       0.056
